SYSTEM_UNDER_TEST: CA (Human immunodeficiency virus type 1 group M subtype B)
Construct: a fusion protein of CA with glutathione-S-transferase (CA-GST)
EXPERIMENT_NOTES: AlphaScreen: inhibition of CAI-biotin peptide binding to CA-GST
ASSAY_CONTEXT: inhibition of CAI binding to CA (CA-GST fusion); compounds screened at 0.5-100 µM; read-out: α screen IC50
Counter-ions that a name gives are not always drawn.
Below, each entry is listed with its recorded IC50.

[
  {
    "COMPOUND": "CC(=O)c1cc(Nc2cc(C)nc(-c3cccnc3)n2)ccc1F [AMR-839, hydrochloride]",
    "RELATION_SYMBOL": "=",
    "IC50 [µM]": 9
  },
  {
    "COMPOUND": "O=C(NCCF)c1ccc(Nc2ccnc(-c3cccnc3)n2)cc1 [AMR-792, hydrochloride]",
    "RELATION_SYMBOL": "=",
    "IC50 [µM]": 34
  },
  {
    "COMPOUND": "Cc1cc(Nc2ccc(C(=O)NCCF)cc2)nc(-c2cccnc2)n1 [AMR-795, hydrochloride]",
    "RELATION_SYMBOL": "=",
    "IC50 [µM]": 8
  },
  {
    "COMPOUND": "CC(=O)c1ccc(Nc2ccnc(-c3cccnc3)n2)cc1 [AMR-725, hydrochloride]",
    "RELATION_SYMBOL": "=",
    "IC50 [µM]": 53
  },
  {
    "COMPOUND": "Fc1cc(Nc2ccnc(-c3cccnc3)n2)cc(F)c1F [KP-351, dihydrochloride]",
    "RELATION_SYMBOL": "=",
    "IC50 [µM]": 60
  },
  {
    "COMPOUND": "O=C(NCCF)c1cc(Nc2ccnc(-c3cccnc3)n2)ccc1F [AMR-816, dihydrochloride]",
    "RELATION_SYMBOL": "=",
    "IC50 [µM]": 68
  },
  {
    "COMPOUND": "O=C(NCCF)c1ccc(Nc2ccnc(-c3cccnc3)n2)cc1F [AMR-831, hydrochloride]",
    "RELATION_SYMBOL": "=",
    "IC50 [µM]": 43
  },
  {
    "COMPOUND": "Fc1cc(Nc2ccnc(-c3cncc(Br)c3)n2)cc(F)c1F [KP-359, hydrochloride]",
    "RELATION_SYMBOL": ">",
    "IC50 [µM]": 100
  }
]

Origin of values: patent EP2769722A1
